The measured values listed here are drawn from PubChem BioAssay (NCATS).

- protocol-text: Quantitative high throughput screen for delayed death inhibitors of the malarial parasite plastid, 96 hour incubation (AID 488745); also: nearly all actives have a fitted effect of over 70% in size
- conditions: Plasmodium falciparum growth; series mostly up to 28.7 µM
- Description: NIH Molecular Libraries Probe Production Network [MLPCN] NIH Chemical Genomics Center [NCGC] Assay Provider: David Fidock and Eric Ekland, Columbia University […] We have developed a cell-based assay that measures parasite growth based on the expression of an integrated copy of a firefly luciferase reporter. […] Growth inhibition is detected by a decrease in luciferase activity […]
Records with an inconclusive call do not appear. Active and inactive are the calls of the source. Calls follow the shape of the dose curve; as a rule, active = well fitted inhibition curve with a large enough effect; inconclusive = small, poorly fitted or top-dose-only effect, or effect the other way; inactive = no such curve, though single readings can be large or run the other way.
Possible outcomes: active, inactive

[
  {
    "compound": "C/C=C(/C)C(=O)O[C@H]1C(C)=C2C([C@@H]1OC(=O)CCCCCCC)[C@@](C)(OC(C)=O)C[C@@H](OC(=O)CCC)[C@@]1(O)[C@H]2OC(=O)[C@@]1(C)O (stereo not given in full)",
    "category-label": "active"
  },
  {
    "compound": "CN1CCC23CCCC[C@H]2C1Cc1ccc(O)cc13 (stereo not given in full)",
    "category-label": "inactive"
  },
  {
    "compound": "NC(Cn1ccc(=O)[nH]c1=O)C(=O)O (stereo not given)",
    "category-label": "inactive"
  },
  {
    "compound": "CCCN1CCC[C@@H]2Cc3n[nH]cc3C[C@H]21",
    "category-label": "inactive"
  },
  {
    "compound": "CC12CCC3C(CCC4=C(O)C(=O)CCC43C)C1CCC2=O (stereo not given)",
    "category-label": "inactive"
  },
  {
    "compound": "C[C@]12CC[C@H](OS(=O)(=O)O)CC1=CCC1C2CC[C@]2(C)C(=O)CC[C@@H]12 (stereo not given in full)",
    "category-label": "inactive"
  },
  {
    "compound": "C=CCN1CCc2cccc3c2C1Cc1ccc(O)c(O)c1-3 (stereo not given)",
    "category-label": "inactive"
  },
  {
    "compound": "COc1ccc2c(c1O)-c1cccc3c1C(C2)N(C)CC3 (stereo not given)",
    "category-label": "inactive"
  },
  {
    "compound": "C=CCN1CC[C@@]2(C)c3cc(O)ccc3CC1[C@@H]2C",
    "category-label": "inactive"
  },
  {
    "compound": "C[C@]12CC[C@H](O)CC1=CCC1C2CC[C@]2(C)C(=O)CC[C@@H]12 (stereo not given in full)",
    "category-label": "inactive"
  }
]

---

Property: activity change, negative = inhibition; scope: individual molecules
- protocol-text: qHTS Assay for Lipid Storage Modulators (AID 1519); also: % is scaled to controls: 0 for no effect and ±100 for the full control effect
- conditions: Drosophila S3 cells, BODIPY lipid droplet/cell ratio, laser cytometry; at 57.5 µM (top of the series); cells loaded with oleic acid
Results filed as inconclusive are left out.

[
  {
    "molecule": "CNc1ccc(C(=O)CC(O)CCC(C)C2OC(=O)CC(O)CC(=O)CC(O)CC(O)CC(O)CC(O)CC3(O)CC(O)C(C(=O)OC)C(CC(O[C@@H]4OC(C)C(O)C(N)C4O)/C=C/C=C/C=C/C=C/C=C/C=C/C=C/C2C)O3)cc1 (stereo partly drawn)",
    "activity change, negative = inhibition (%)": 9.29
  },
  {
    "molecule": "CCC(C)C(=O)c1c(O)c(C)c2oc3c(C)c(O)c(C(=O)C(C)CC)c(O)c3c2c1O (stereo not drawn)",
    "activity change, negative = inhibition (%)": -5.67
  },
  {
    "molecule": "CCC(C)C(=O)OC1C(O)C2C(CN3CC(C)CCC3[C@]2(C)O)C2C[C@]34O[C@@]5(O)C(OC(=O)C(C)(O)C(C)O)CCC3(C)C5C(OC(C)=O)C(OC(C)=O)C4[C@@]21O (stereo partly drawn)",
    "activity change, negative = inhibition (%)": 4.38
  }
]

---

- protocol-text: HEK-293 Cancer Cell Toxicity qHTS against the NCATS CANVASS Library (AID 1347355); also: nearly all actives have a fitted effect of over 65% in size
- conditions: HEK-293 viability, CellTiter-Glo luminescence, 72 h; series mostly up to 46.1 µM
- Description: Natural products and their derivatives continue to be wellsprings of nascent therapeutic potential. […] To address this issue, the Canvass library of natural products was assembled (https://tripod.nih.gov/canvass), in collaboration with academic and industry researchers, for quantitative high-throughput screening (qHTS) across a diverse set of cell-based and biochemical assays. […]
Results filed as inconclusive are left out. Active and inactive are the calls of the source. Calls come from the whole dose curve; as a rule, active = well fitted cell-killing curve with a large enough effect; inconclusive = small, poorly fitted or top-dose-only effect; inactive = flat fitted curve, though single readings scatter.
Possible outcomes: 1 (active), 0 (inactive)

[
  {
    "compound": "C=CC(C)(C)[C@@]12C[C@H]3C(=O)N/C(=C\\c4cnc[nH]4)C(=O)N3[C@@H]1Nc1ccccc12",
    "category-label": 0
  },
  {
    "compound": "C/C=C1/CN2CC[C@@]34c5ccccc5N(C)[C@@H]3[C@@H]2C[C@@H]1[C@H]4C(=O)OC",
    "category-label": 0
  },
  {
    "compound": "C[C@]12CCC3[C@@H](CC[C@@H]4C[C@@H](O)CC[C@]34CO)[C@@]1(O)CC[C@@H]2C1=CC(=O)OC1 (stereo not given in full)",
    "category-label": 1
  },
  {
    "compound": "c1ccc2nc3c(cc2c1)[nH]c1ccccc13",
    "category-label": 0
  },
  {
    "compound": "C=C[C@H]1CN2CCc3c([nH]c4cccc(OC)c34)[C@@H]2C[C@@H]1/C(=C\\OC)C(=O)OC",
    "category-label": 1
  },
  {
    "compound": "C/C=C1/CN2CC[C@]34C(=C(C(=O)OC)[C@H]1C[C@H]23)Nc1ccccc14",
    "category-label": 0
  },
  {
    "compound": "C/C=C1/CN2C3CC1C1=CCC(=O)N4c5ccccc5[C@@]3(C[C@@H]2C2=C[C@H]3C5CC6N(CC[C@@]67c6ccccc6N(C2=O)[C@@H]37)C/C5=C/C)[C@H]14 (stereo not given in full)",
    "category-label": 1
  },
  {
    "compound": "C=C[C@]12C=CCN3CC[C@@]4(c5ccccc5NC(=O)[C@@H]4C1)[C@@H]32",
    "category-label": 0
  },
  {
    "compound": "CCC(=O)N[C@@H](C[C@H](C)C(Cl)(Cl)Cl)C(=O)N1C(=O)C=C(OC)[C@@H]1C[C@H](C)C(Cl)Cl",
    "category-label": 0
  },
  {
    "compound": "CC[C@@H]1CN2CCc3c([nH]c4cccc(OC)c34)[C@@H]2C[C@@H]1/C(=C\\OC)C(=O)OC",
    "category-label": 1
  },
  {
    "compound": "CC[C@@H]1CN2CCC3(Nc4cccc(OC)c4C3=O)[C@@H]2C[C@@H]1/C(=C\\OC)C(=O)OC (stereo not given in full)",
    "category-label": 0
  },
  {
    "compound": "C[C@]12CC(O)C3[C@@H](CCC4C[C@@H](O)CC[C@@]43CO)[C@@]1(O)CC[C@@H]2C1=CC(=O)OC1 (stereo not given in full)",
    "category-label": 1
  },
  {
    "compound": "O[C@H]1C=C[C@@]23CCN(Cc4cc5c(cc42)OCO5)[C@@H]3C1",
    "category-label": 0
  },
  {
    "compound": "CO[C@H]([C@@H](C)[C@H]1O[C@]1(C)C[C@H](C)/C=C/C=C(\\C)[C@H]1O[C@@H](CC(=O)O)CC[C@@H]1C)[C@@H](C)O",
    "category-label": 1
  },
  {
    "compound": "CCCC[C@@H](C)/C=C1/CN2CCC[C@H]2[C@@](C)(O)[C@@H]1O",
    "category-label": 0
  }
]
